# MEASURED_TARGET: S. mutans SrtA (Streptococcus mutans, UniProt Q8CM62)
# Construct: made in house; host or cells: Escherichia coli
# Sequence (Q8CM62 entry or part of it): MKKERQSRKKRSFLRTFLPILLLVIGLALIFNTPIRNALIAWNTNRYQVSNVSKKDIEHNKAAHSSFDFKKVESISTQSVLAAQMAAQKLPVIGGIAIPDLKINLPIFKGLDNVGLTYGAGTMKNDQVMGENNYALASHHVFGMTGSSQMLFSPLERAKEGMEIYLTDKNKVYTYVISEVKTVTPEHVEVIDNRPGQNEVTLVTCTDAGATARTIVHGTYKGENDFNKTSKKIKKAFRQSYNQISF
# MEASUREMENT_DESCRIPTION: biochemical
# Type: biochemical, Streptococcus mutans OMZ65
# TEST_CONTEXT: pIC50, pIC50 = −log10(IC50), S. mutans SrtA
VALUE_TYPE: pIC50
Numbers only, as −log10 of the molar value.

// COc1cc(O)cc(O)c1C(C)=O [Compound 4, 4,6-dihydroxy-2-methoxyacetophenone] : pIC50 value = 3.81

###

Can you tell me pIC50 for the items I'm about to list?
# MEASURED_TARGET: S. mutans SrtA (Streptococcus mutans, UniProt Q8CM62)
# Construct: made in house; host or cells: Escherichia coli
# MEASUREMENT_DESCRIPTION: biochemical
# Format: biochemical, Streptococcus mutans OMZ65
# TEST_CONTEXT: SrtA IC50, recombinant SrtA from S. mutans OMZ65; 1 h, 37°C
Answers are plain numbers, as −log10 of the molar value.

Here are 2 molecules together with their reported answers.
| MOLECULE | MEASURED_TARGET | MEASURED_NUMBER |
| --- | --- | --- |
| C/C(=C\Cc1ccc(=O)c(O)cc1C(C)C)CO [Compound 6, juniperone A] | S. mutans SrtA (Streptococcus mutans, UniProt Q8CM62) | 4.20 |
| COc1cc(O)cc(O)c1C(C)=O [Compound 4, 4,6-dihydroxy-2-methoxyacetophenone] | S. mutans SrtA (Streptococcus mutans, UniProt Q8CM62) | 3.82 |

For every listed record, write down its pIC50.
1. COc1cc(C[C@H]2COC(=O)[C@@H]2Cc2cc(O)c(O)c(OC)c2)cc(O)c1O [Compound 1, 3’,3”-dihydroxy-(−)-matairesinol]
2. CC(C)c1cc(=O)c(O)ccc1O [Compound 5, 5-hydroxyhinokitiol]

A:
4.79
4.29

Values compiled from paper PMC9225741.
